- testTarget: T1, Human CD137 ECD (human)
- T1 construct: entry includes C-terminal His-tag and biotin acceptor peptide; also called human CD137 extracellular domain; 4-1BB
- T1 sequence (chain, as listed by the source limits assumed): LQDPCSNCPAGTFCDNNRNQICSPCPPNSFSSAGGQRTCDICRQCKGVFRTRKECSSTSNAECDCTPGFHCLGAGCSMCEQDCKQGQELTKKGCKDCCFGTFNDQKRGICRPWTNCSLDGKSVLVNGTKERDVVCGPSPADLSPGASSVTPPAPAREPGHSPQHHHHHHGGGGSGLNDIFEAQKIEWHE
- assay: Biacore SPR, vs parent H183/L072
What fold change of affinity was measured for each of the following?
Include the unit after the number when you answer.

| binder | fold change of affinity |
| --- | --- |
| H183/L072 VL L33A (antibody, name in Kabat numbering, V domains shown, Dual-Ig) VH: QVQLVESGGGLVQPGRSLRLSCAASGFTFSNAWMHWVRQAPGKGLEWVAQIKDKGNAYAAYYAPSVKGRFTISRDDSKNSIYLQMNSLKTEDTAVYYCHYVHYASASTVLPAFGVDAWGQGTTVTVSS VL: DIVMTQSPLSLPVTPGEPASISCQASQELVHMNRNTYAHWYQQKPGQAPRLLIYKVSNRFPGVPDRFSGSGSGTDFTLKISRVEAEDVGVYYCAQGTSVPFTFGQGTKLEIK | 0.9 fold |

# input for lookup
The binder listed as H183/L072 VL V27cW (antibody, name in Kabat numbering, V domains shown, Dual-Ig) VH: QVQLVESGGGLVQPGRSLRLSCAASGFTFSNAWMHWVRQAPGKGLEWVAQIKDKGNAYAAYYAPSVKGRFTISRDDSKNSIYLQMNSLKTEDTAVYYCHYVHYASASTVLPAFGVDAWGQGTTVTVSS VL: DIVMTQSPLSLPVTPGEPASISCQASQELWHMNRNTYLHWYQQKPGQAPRLLIYKVSNRFPGVPDRFSGSGSGTDFTLKISRVEAEDVGVYYCAQGTSVPFTFGQGTKLEIK shows fold change of affinity equal to 0.7 fold
